Values from PubChem BioAssay AID1259407

# Tested on: CCRIS mutagenicity, Ames/micronucleus/aberration tests
# experimental.protocol: CCRIS mutagenicity studies
# condition.description: Test System: AMES SALMONELLA TYPHIMURIUM; Strain/Indicator: TA100; Metabolic Activation: RAT, LIVER, S-9, AROCLOR 1254
The source made the active and inactive calls. No rule for the calls is given here.
Possible outcomes: Yes for active, No for inactive

| compound | category.label |
| --- | --- |
| C=CCOc1ccccc1OCC(O)CNC(C)C (stereo unspecified) | No |
| O=[N+]([O-])c1ccc2c(c1)CCc1c-2ccc2c1CCCC2 | Yes |
| Cc1cc2c(cc1C)-c1cc3ccccc3c3cccc-2c13 | Yes |
| CCCCOC(=O)/C=C\C(=O)OCCCC | No |
| Cc1cc(C)c2c3c(cc4ccccc42)-c2ccccc2-c13 | Yes |
| Oc1cc(Cl)c(O)cc1Cl | No |

====

# Tested on: CCRIS mutagenicity, Ames/micronucleus/aberration tests
# experimental.protocol: CCRIS mutagenicity studies
# condition.description: Test System: AMES SALMONELLA TYPHIMURIUM; Strain/Indicator: TA1535; Metabolic Activation: NONE; Method: STANDARD PLATE
# Source text: The CCRIS database contains chemical records with carcinogenicity, mutagenicity, tumor promotion, and tumor inhibition test results. It was developed by the National Cancer Institute (NCI). Data are derived from studies cited in primary journals, current awareness tools, NCI reports, and other sources. Test results have been reviewed by experts in carcinogenesis and mutagenesis. CCRIS provides historical information from the years 1985 - 2011. It is no longer updated. […]
The source made the active and inactive calls. No rule for the calls is given here.
Possible outcomes: active, inactive

| structure.as.smiles | category.label |
| --- | --- |
| COc1cc(N)c([N+](=O)[O-])cc1N | inactive |
| CC(=O)C(Cl)Cl | active |
| Nc1ccccc1[N+](=O)[O-] | inactive |

====

# Tested on: CCRIS mutagenicity, Ames/micronucleus/aberration tests
# experimental.protocol: CCRIS mutagenicity studies
# condition.description: Test System: AMES SALMONELLA TYPHIMURIUM; Strain/Indicator: TA98; Metabolic Activation: RAT, LIVER, S-9, AROCLOR 1254 (30%); Method: PREINCUBATION
The source made the active and inactive calls. No rule for the calls is given here.
Possible outcomes: 1 (active), -1 (inactive)

| compound | category.label |
| --- | --- |
| COc1ccc(N)c(C)c1 | -1 |
| C=C(C)C(=O)OCCCCCCCC | -1 |
| c1ccc2cc(Nc3ccc(Nc4ccc5ccccc5c4)cc3)ccc2c1 | -1 |
| Cc1ccc(C)o1 | -1 |
| ClCC(Cl)Cl | -1 |
| CCC(Cl)[N+](=O)[O-] (centres undefined) | 1 |
| CCC(C)C(C)CO (centres undefined) | -1 |
| Cc1ccc(Br)cc1 | -1 |
| CC(CC(=O)O)C(=O)O (centres undefined) | -1 |
| c1ccc(Nc2ccc3ccccc3c2)cc1 | -1 |
| O=S(=O)(O)c1ccc(N=Nc2c(O)ccc3cc(S(=O)(=O)O)ccc23)cc1 | -1 |
| CCC(C)Nc1ccc(NC(C)CC)cc1 (centres undefined) | -1 |
| c1cc2c3c(c1)ccc1cccc(c13)C2 | -1 |
| [Ga]#[As] | -1 |
| COc1ccc(C)cc1N | 1 |
| Cc1ccc(S(=O)(=O)NC2CCCCC2)cc1 | -1 |
| Cc1cccc(C)c1N | -1 |
| Oc1c(I)cc(Cl)c2cccnc12 | -1 |
| O=Cc1ccc(Cl)c(Cl)c1 | -1 |

====

# Tested on: CCRIS mutagenicity, Ames/micronucleus/aberration tests
# experimental.protocol: CCRIS mutagenicity studies
# condition.description: Test System: AMES SALMONELLA TYPHIMURIUM; Strain/Indicator: TA1537; Metabolic Activation: NONE; Method: STANDARD PLATE
The source made the active and inactive calls. The rule behind the calls is not given here.
Possible outcomes: true (1) (active), false (0) (inactive)

| compound | category.label |
| --- | --- |
| CCN(CC)c1ccc(C(=C2C=CC(=[N+](CC)CC)C=C2)c2ccc(N(CC)CC)cc2)cc1 | false (0) |
| O=c1[nH]c(=O)n([C@H]2C[C@H](O)[C@@H](CO)O2)cc1CO | false (0) |
| CN(C)CCCNc1c2ccccc2nc2ccc([N+](=O)[O-])cc12 | true (1) |
| COc1ccc(N)c(OC)c1 | false (0) |
| O=S(=O)(Nc1ccc(Cl)cc1Cl)c1cccc2cccnc12 | false (0) |
| CCN(CC)CCNc1ccc(CO)c2sc3ccccc3c(=O)c12 | true (1) |
| O=P([O-])([O-])OC(CCO)CCO.O=P([O-])([O-])OCC(O)CO.[Mn+2].[Mn+2] | false (0) |
| CN(C)CCCN1c2ccccc2Sc2ccc(Cl)cc21 | false (0) |
| COc1cc([N+](=O)[O-])ccc1N=NC(C(C)=O)C(=O)Nc1ccccc1OC (stereo not drawn) | false (0) |
| Cc1cc(C)c(S(=O)(=O)O)cc1N=Nc1cc(S(=O)(=O)O)c2ccccc2c1O | false (0) |
| Nc1c(S(=O)(=O)O)cc(NC2CCCCC2)c2c1C(=O)c1ccccc1C2=O | false (0) |
| CN(C)C(=O)Oc1ccc[n+](C)c1 | false (0) |
| C=CC(=O)OC(C)(C)C | false (0) |
| CN(C)CCNC(=O)c1cccc2c(=O)c3ccccc3[nH]c12 | true (1) |
| Nc1snc2c(Cl)cc(Cl)cc12 | false (0) |
| O=[N+]([O-])c1cccc2csnc12 | true (1) |
| CN(C)CCNC(=O)c1cccc2[nH]c(-c3ccccc3)nc12 | true (1) |
| O=C(Cl)c1ccc([N+](=O)[O-])cc1 | false (0) |
| CN(C)N=Nc1ccc(Br)cc1 | true (1) |
| O=C1c2ccccc2C(=O)c2ccccc21 | false (0) |
| Nc1ccccc1[N+](=O)[O-] | false (0) |
| CNc1ccc(Nc2c3ccccc3nc3ccccc23)cc1 | true (1) |
| N#Cc1ccccc1 | false (0) |
| CN(C)CCNC(=O)c1ccc2c(N)c3ccccc3nc2c1 | false (0) |
| C[CH2][Ge]([Cl])([CH2]C)[CH2]C | false (0) |
| Clc1ccc2c(c1)C(c1ccccc1)=NCc1nncn1-2 | false (0) |
| O=C(CCCN1CCN(c2ccccn2)CC1)c1ccc(F)cc1 | false (0) |
| Cc1cn2c([N+](=O)[O-])c(-c3ccc([N+](=O)[O-])cc3)nc2s1 | true (1) |
| O=C(OCc1ccc(Cl)cc1)c1cccc2cccnc12 | false (0) |
| COc1cc(N)c([N+](=O)[O-])cc1N | true (1) |
| C[C@]12CC[C@H](OC(=O)/C=C/c3cccc(N(CCCl)CCCl)c3)C[C@@H]1CC[C@@H]1[C@@H]2CC[C@]2(C)NC(=O)CC[C@@H]12 | false (0) |
| Oc1ccc2c(O)c3ccccc3cc2c1O | true (1) |
| CCN(CC)CCCC(C)Nc1c2ccc(Cl)cc2nc2ccc(OC)cc12 (stereo not drawn) | true (1) |
| CCCCC(CC)COC(=O)c1ccc(N(C)C)c([N+](=O)[O-])c1 (stereo not drawn) | true (1) |
| [Pb] | false (0) |
| CC1=C(C(=O)OC(C)C)C(c2cccc([N+](=O)[O-])c2)C(C(=O)OC2CN(C(c3ccccc3)c3ccccc3)C2)=C(N)N1 (stereo not drawn) | false (0) |
| CCC(=O)N(c1ccc(Cl)c(Cl)c1)[C@@H]1CCC[C@H]1N(C)C | false (0) |
| COP(=O)(OC)C(OC(=O)CCl)C(Cl)(Cl)Cl (stereo not drawn) | false (0) |

====

# Test system: CCRIS mutagenicity, Ames/micronucleus/aberration tests
# experimental.protocol: CCRIS mutagenicity studies
# condition.description: Test System: AMES SALMONELLA TYPHIMURIUM; Strain/Indicator: TA98; Metabolic Activation: NONE; Method: STANDARD PLATE
The source made the active and inactive calls. No rule for the calls is given here.

| molecule | mutagenic call |
| --- | --- |
| Cc1ccc([N+](=O)[O-])c2c(NCCCN(C)C)c3ccccc3nc12 | active; positive |
| CCCCC/C=C\C/C=C\CCCCCCCC(=O)O | inactive; negative |
| O[C@@H]1c2ccccc2-c2ccc3ccccc3c2[C@H]1O | inactive; negative |
| COc1ccc2[nH]cc(CCNC(C)=O)c2c1 | inactive; negative |
| Oc1cccc(O)c1O | inactive; negative |
| O=S(=O)(O)c1ccc(N=Nc2c(O)ccc3cc(S(=O)(=O)O)ccc23)cc1 | inactive; negative |
| CNc1snc2ccccc12 | inactive; negative |
| CC(C)=CCc1ccc(O)c2c(=O)c3c(O)c4c(cc3oc12)O[C@H]1OC=C[C@@]41O | active; positive |
| COc1ccc2cc1Oc1ccc(cc1)C[C@H]1c3cc(c(OC)cc3CCN1C)Oc1c(OC)c(OC)cc3c1[C@H](C2)N(C)CC3 | inactive; negative |
| COC(=O)Nc1nc2ccc(C(=O)c3ccc(F)cc3)cc2[nH]1 | inactive; negative |
| O=C1c2ccccc2CN2C(=O)c3ccccc3CN12 | inactive; negative |
| C=CCc1[c-]cccc1.C=CCc1[c-]cccc1.[Pt+2] | inactive; negative |
| O=[N+]([O-])c1ccc2c(ccc3ccccc32)c1 | active; positive |
| O=[N+]([O-])c1ccc(Sc2ccccc2)cc1 | active; positive |
| Cc1cc(Cl)ccc1OC(C)C(=O)O (stereo unspecified) | inactive; negative |
| CC(=O)C(Cl)Cl | inactive; negative |
| CC(=O)OCCO | inactive; negative |
| CCC1(c2ccccc2)C(=O)NC(=O)NC1=O | inactive; negative |
| ONc1ccc2c(c1)Cc1ccccc1-2 | active; positive |
| O=NN1CCSC1CO (stereo unspecified) | inactive; negative |
| CCOC(=O)c1[nH]c2ccccc2c1N=Cc1ccc([N+](=O)[O-])cc1 | inactive; negative |
